Where these numbers come from: patent US20230027072A1

test: Phase 1 clinical study, pharmacokinetics (Example 39); format: in vivo; settings: human, in vivo, po

| RECORD SMILES | Tmax |
| --- | --- |
| Cc1cnc(NC2CCOCC2)nc1-n1cnc(C(=O)N[C@H](CN)c2cc(F)cc(Cl)c2)c1 | 1 to 4 h |

----------
assay: Phase 1 clinical study, pharmacokinetics (Example 39); format: in vivo; details: human, plasma, oral; 250 mg weekly (MTD for QW regimen), Day 15; read-out: AUCtau, mean (CV %)

| RECORD SMILES | OUTPUT UNIT | AUC |
| --- | --- | --- |
| Cc1cnc(NC2CCOCC2)nc1-n1cnc(C(=O)N[C@H](CN)c2cc(F)cc(Cl)c2)c1 | ng·h/mL | 5500 |
